measuredTarget: human α2δ-1 subunit of Cav2.2 calcium channel (Homo sapiens)
Sequence (P54289 25-1103): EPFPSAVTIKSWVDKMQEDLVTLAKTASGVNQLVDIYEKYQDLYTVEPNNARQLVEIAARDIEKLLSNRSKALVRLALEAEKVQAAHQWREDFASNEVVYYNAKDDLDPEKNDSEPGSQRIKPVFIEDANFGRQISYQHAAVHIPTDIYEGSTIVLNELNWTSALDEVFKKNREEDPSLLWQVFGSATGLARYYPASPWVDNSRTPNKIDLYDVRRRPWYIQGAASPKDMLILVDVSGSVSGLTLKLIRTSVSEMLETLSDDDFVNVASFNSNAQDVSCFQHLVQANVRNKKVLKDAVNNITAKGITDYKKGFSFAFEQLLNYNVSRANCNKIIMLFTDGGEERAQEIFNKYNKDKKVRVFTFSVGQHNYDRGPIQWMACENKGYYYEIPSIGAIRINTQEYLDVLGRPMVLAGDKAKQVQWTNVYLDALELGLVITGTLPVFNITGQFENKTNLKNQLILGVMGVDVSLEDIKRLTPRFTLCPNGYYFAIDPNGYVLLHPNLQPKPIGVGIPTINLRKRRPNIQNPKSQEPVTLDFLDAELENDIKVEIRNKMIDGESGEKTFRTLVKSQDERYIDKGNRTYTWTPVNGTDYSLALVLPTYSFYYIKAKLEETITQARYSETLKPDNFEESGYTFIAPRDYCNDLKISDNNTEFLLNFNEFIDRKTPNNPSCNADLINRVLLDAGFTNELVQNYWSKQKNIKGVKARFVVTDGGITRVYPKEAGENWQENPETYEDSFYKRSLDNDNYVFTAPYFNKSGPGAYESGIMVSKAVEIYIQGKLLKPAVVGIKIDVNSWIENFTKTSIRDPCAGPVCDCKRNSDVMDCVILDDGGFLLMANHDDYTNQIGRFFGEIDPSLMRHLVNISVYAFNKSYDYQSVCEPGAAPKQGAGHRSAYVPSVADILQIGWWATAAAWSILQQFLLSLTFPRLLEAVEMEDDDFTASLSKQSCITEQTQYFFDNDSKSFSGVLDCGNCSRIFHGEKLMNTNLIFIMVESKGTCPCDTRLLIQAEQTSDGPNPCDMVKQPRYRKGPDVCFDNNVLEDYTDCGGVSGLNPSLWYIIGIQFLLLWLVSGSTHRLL
testName: Binding assay to human α2δ-1 subunit of Cav2.2 calcium channel ([3H]-Gabapentin)
runParameters: Table 1, human α2δ-1 enriched membranes, read-out: Ki(nM) alpha2delta Hum

| compound | Ki |
| --- | --- |
| CCNCC[C@@H](Oc1cccc2c(=O)n(C)cnc12)c1ccsc1 | < 100 nM |
| CNCCC(OCc1cccc2cnccc12)c1ccccc1 (stereo not shown) | ≥ 3000 nM |
| CNCCC(Oc1cccc2ncn(C)c(=O)c12)c1cccs1 (stereo not shown) | 100 to 500 nM |
| CCNCC[C@@H](Oc1cccc2c(=O)n(C)cnc12)c1cccs1 | 100 to 500 nM |

This collection of values is drawn from patent US20190345146A1.
